Test: gradient 5% acetonitrile 3 min, to 50% in 2 min, to 85% in 15 min, held 3 min, 100 µL/min
Settings: column: Zorbax Extend-C18 2.1 x 50 mm; eluents: water / acetonitrile, 0.1% formic acid

compoundString	unitsSymbol	RP-LC retention time
O=C(Cc1ccsc1)NCCC1CCN(C(=O)Nc2cc(F)ccc2F)CC1	s	915
Cc1ccc(CCNC(=O)Cn2nc(-n3cccc3)c3c(C)cc(C)nc32)cc1	s	1070
CCN1CCN(c2nccc(-c3cnc4nc(-c5ccccc5)nn4c3C)n2)CC1	s	633
CN1CCn2cc(S(=O)(=O)Nc3ccc(F)cc3F)cc2C1=O	s	671
Cc1nnc(-c2nnc(NCCC(C)C)c3ccccc23)o1	s	710
CC(C)CNC(=O)Nc1ccc2c(c1)CCN2S(C)(=O)=O	s	733
Cc1nn2c(CNS(=O)(=O)c3cc(F)ccc3F)c(-c3ccccc3)nc2s1	s	848
NS(=O)(=O)c1ccc(CCNC(=O)c2csc(-c3cnccn3)n2)cc1	s	622
CCOc1ccccc1NC(=O)CN1CCN(c2nccn2-c2ccc(C)cc2)CC1	s	612
CC(C)c1ccc(NC(=O)Cn2cnc3nc4c(cc3c2=O)CCCC4)cc1	s	762

* * *

Assay: gradient 5% acetonitrile 3 min, to 50% in 2 min, to 85% in 15 min, held 3 min, 100 µL/min
Conditions: column: Zorbax Extend-C18 2.1 x 50 mm; eluents: water / acetonitrile, 0.1% formic acid
Decide using RP-LC retention time: a value greater than or equal to 800 s is T, a smaller one is F.

compound	qualitativeLabel
COc1ccc(-c2c(C(=O)Nc3cccc(C(C)=O)c3)nc3ccccn23)cc1	T
Cc1ccc(CN2CCN(C3CCN(C(=O)Nc4ccc5c(c4)OCCO5)CC3)C2=O)cc1	F
CCC(C)C(NC(=O)c1cccs1)C(=O)Nc1nc2ccccc2[nH]1 (stereo not drawn)	F
Cc1ccc(NC(=O)N2CCC(OC3CCN(S(C)(=O)=O)CC3)CC2)cc1Cl	T
CCc1noc(NC(C)=O)c1-c1ccc(OC)c(S(=O)(=O)Nc2ccc(S(N)(=O)=O)cc2)c1	F
Cc1cccc2c1NC(=O)C2(O)CC(=O)c1ccc(C(C)C)cc1 (stereo not drawn)	T
Cc1cc(C(=O)N2CCC(N3CCCCC3)CC2)c2cc(Br)ccc2n1	F
CS(=O)(=O)Nc1ccc(Cc2noc(-c3ccc4[nH]cc(CCN)c4c3)n2)cc1	F
CCOc1ccc(S(=O)(=O)N2CCCN(c3ccc(=O)n(-c4ccc(F)cc4)n3)CC2)cc1	T
O=C(NC1CC1)c1csc(N2CCCCC2)n1	T
COc1ccc2c(c1)CC(C(=O)NCCCN1CCN(C3CCCCC3)CC1)CO2 (stereo not drawn)	F
Clc1ccccc1-c1nnc(SCc2cccnc2)o1	F
CCCn1c(-c2cccc(C(=O)NCc3ccc(C(F)(F)F)cc3)c2)nc2cccnc21	T
COc1ccc(CCNc2nc(N3CCc4cc(OC)c(OC)cc4C3)c3cc(OC)c(OC)cc3n2)cc1OC	T
CCOC(=O)C1CCN(Cc2nc(-c3ccc(N4CCCCC4)nc3)no2)CC1	F
O=C(Nc1cc(F)cc(F)c1)c1csc(-c2ccc(N3CCCC3)nc2)n1	T
COc1ccc(-c2ccnc3nc(C(C)C)nn23)c(F)c1	T
Cc1cc(C)cc(C(=O)N2c3ccccc3CC2c2nc(C3CC3)no2)c1 (stereo not drawn)	T
Cc1nn(CC(=O)NCCCN2CCCC2)c(=O)c2nn(-c3ccccc3)c(C)c12	F
Cc1cccc(C(=O)Nc2ccc(N3CCN(C4CCCC4)C3=O)nc2)c1	T
O=c1n(CC2CC2)c2cccnc2n1[C@H]1CCCN(S(=O)(=O)c2cccnc2)C1	T
Cn1nc(C(=O)N2CCOCC2)c2c1CCN(C(=O)Nc1ccccc1)C2	F
Cc1ccc(-n2ccc(=O)c(-c3nc(-c4ccc(Cl)c(F)c4)no3)n2)cc1	T
COc1ccc(-c2nnc(N3CCC(C(=O)N4CCN(c5ccccc5)CC4)CC3)o2)cc1	T
CCOC(=O)N1CCC2(CC1)N=C(c1ccc(F)cc1)CC(c1cccc(OC)c1O)N2 (stereo not drawn)	F
COc1cccc2c1ccn2CCNC(=O)C1CC(=O)N(c2n[nH]c3ccccc23)C1 (stereo not drawn)	F
Cc1ccc(C)c2sc(NC(=O)c3cccc(N4C(=O)CCC4=O)c3)nc12	T
O=C(c1cnccn1)N1CCN(c2ccc(-n3cccn3)nn2)CC1	F
CCOc1cc(-c2nc(C3CC(=O)N(c4ccc(CC)cc4)C3)no2)cc(OCC)c1OCC (stereo not drawn)	T
CCCOc1nccnc1N1CCC(N(C)C(=O)Cc2cccnc2)C1 (stereo not drawn)	F
CCc1ccc(-c2ccc(-n3nc(C)c(S(=O)(=O)N4CCCC4)c3C)nn2)cc1	T
